Run Description: Synergy of Shiva-1 and lysozyme, percent viability
Assay type: cell-based, Pseudomonas aeruginosa
Condition Description: Pseudomonas aeruginosa
No end group written: not given here.
Reported Metric: viability at 25 µM (%)

- MPRWRLFRRIDRVGKQIKQGILRAGPAIALVGDARAVG [Shiva-1]: 0
- MPKWKVFKKIEKVGRNIRNGIVKAGPAIAVLGEAKALG-NH2 (C-terminus assumed) [SB-37]: 0

----------
Run Description: in vitro
Format: cell-based, human
Condition Description: human, human red blood cells, pH 7, Table 26, valine substitution; read-out: Hemolysis RBC LD50
No end group written: not given here.
Each record is given 1 if its reported HC50 at 1 h is strictly below 60 µg/mL. Records at or above 60 µg/mL are given -1.

- VAKFLAKFLKKAL-NH2 [compound 502]: -1
- FAKLLAKLAKKVL-NH2 [compound 124]: 1
- VAKLLAKALKKLL-NH2 [compound 506]: -1
- VALALKALKKALKKLKKALKKAL-OH [compound 508]: -1
- FAKFLAKFLKKAL-NH2 [compound 111]: 1

Taken from patent US20050209157A1.
